Where do these numbers come from? They come from ChEMBL document CHEMBL1208666.

test system: Bacillus cereus; assay: Antibacterial activity against Bacillus cereus at 100 ug/ml after 24 hrs by paper disc diffusion technique; type: functional; conditions: read-out: IZ
REPORTED ENDPOINT: zone of inhibition at 100 µg/mL (mm)
Give the value in mm but do not write mm after it.

The cases that follow already have their zone of inhibition at 100 µg/mL on record.
[
  {
    "COMPOUND": "O=C(NN1C(=O)CSC1c1ccccc1)c1ccc(-n2c(-c3ccccc3)nc3c(Br)cc(Br)cc3c2=O)cc1 (configuration not stated)",
    "SYSTEM UNDER TEST": "Bacillus cereus",
    "UNITS LABEL": "mm",
    "MEASURED VALUE": 9
  },
  {
    "COMPOUND": "CC(=O)NNC(=O)c1ccc(-n2c(-c3ccccc3)nc3c(Br)cc(Br)cc3c2=O)cc1",
    "SYSTEM UNDER TEST": "Bacillus cereus",
    "UNITS LABEL": "mm",
    "MEASURED VALUE": 9
  },
  {
    "COMPOUND": "O=C1CC(=O)N(C(=O)c2ccc(-n3c(-c4ccccc4)nc4c(Br)cc(Br)cc4c3=O)cc2)N1",
    "SYSTEM UNDER TEST": "Bacillus cereus",
    "UNITS LABEL": "mm",
    "MEASURED VALUE": 10
  },
  {
    "COMPOUND": "Cc1ccc(/C=N/NC(=O)c2ccc(-n3c(-c4ccccc4)nc4c(Br)cc(Br)cc4c3=O)cc2)cc1",
    "SYSTEM UNDER TEST": "Bacillus cereus",
    "UNITS LABEL": "mm",
    "MEASURED VALUE": 11
  }
]

Answer with zone of inhibition at 100 µg/mL of "O=C(O)c1cn(C2CC2)c2cc(N3CCNCC3)c(F)cc2c1=O" measured for Bacillus cereus.
20

Return reported zone of inhibition at 100 µg/mL for target or system Bacillus cereus, item "CC1=NN(C(=O)c2ccc(-n3c(-c4ccccc4)nc4c(Br)cc(Br)cc4c3=O)cc2)C(=O)C1" .
11

Fetch value of zone of inhibition at 100 µg/mL on Bacillus cereus for "O=C(N/N=C/c1ccco1)c1ccc(-n2c(-c3ccccc3)nc3c(Br)cc(Br)cc3c2=O)cc1" .
12

* * *

tested on: Bacillus cereus; test: Antibacterial activity against Bacillus cereus at 100 ug/ml after 24 hrs by paper disc diffusion technique; assay type: functional; conditions: read-out: IZ
REPORTED ENDPOINT: zone of inhibition at 100 µg/mL (mm)
Numbers only here, please. The scale is mm.

[
  {
    "COMPOUND": "COc1ccc(/C=N/NC(=O)c2ccc(-n3c(-c4ccccc4)nc4c(Br)cc(Br)cc4c3=O)cc2)cc1",
    "REPORTED ENDPOINT": "zone of inhibition at 100 µg/mL",
    "UNITS LABEL": "mm",
    "MEASURED VALUE": 13
  },
  {
    "COMPOUND": "Cc1ccc(C2SCC(=O)N2NC(=O)c2ccc(-n3c(-c4ccccc4)nc4c(Br)cc(Br)cc4c3=O)cc2)cc1 (centres undefined)",
    "REPORTED ENDPOINT": "zone of inhibition at 100 µg/mL",
    "UNITS LABEL": "mm",
    "MEASURED VALUE": 9
  },
  {
    "COMPOUND": "O=C(NN1C(=O)CSC1c1ccccc1O)c1ccc(-n2c(-c3ccccc3)nc3c(Br)cc(Br)cc3c2=O)cc1 (centres undefined)",
    "REPORTED ENDPOINT": "zone of inhibition at 100 µg/mL",
    "UNITS LABEL": "mm",
    "MEASURED VALUE": 9
  }
]

Note: attention shifts to another entry.
Tell me zone of inhibition at 100 µg/mL reported for "NNC(=O)c1ccc(-n2c(-c3ccccc3)nc3c(Br)cc(Br)cc3c2=O)cc1"
12
